molecular target: UniProtKB P12527; assay: Ability to inhibit 5-lipoxygenase in rat basophilic leukemia cells.
Sequence (P12527 whole entry): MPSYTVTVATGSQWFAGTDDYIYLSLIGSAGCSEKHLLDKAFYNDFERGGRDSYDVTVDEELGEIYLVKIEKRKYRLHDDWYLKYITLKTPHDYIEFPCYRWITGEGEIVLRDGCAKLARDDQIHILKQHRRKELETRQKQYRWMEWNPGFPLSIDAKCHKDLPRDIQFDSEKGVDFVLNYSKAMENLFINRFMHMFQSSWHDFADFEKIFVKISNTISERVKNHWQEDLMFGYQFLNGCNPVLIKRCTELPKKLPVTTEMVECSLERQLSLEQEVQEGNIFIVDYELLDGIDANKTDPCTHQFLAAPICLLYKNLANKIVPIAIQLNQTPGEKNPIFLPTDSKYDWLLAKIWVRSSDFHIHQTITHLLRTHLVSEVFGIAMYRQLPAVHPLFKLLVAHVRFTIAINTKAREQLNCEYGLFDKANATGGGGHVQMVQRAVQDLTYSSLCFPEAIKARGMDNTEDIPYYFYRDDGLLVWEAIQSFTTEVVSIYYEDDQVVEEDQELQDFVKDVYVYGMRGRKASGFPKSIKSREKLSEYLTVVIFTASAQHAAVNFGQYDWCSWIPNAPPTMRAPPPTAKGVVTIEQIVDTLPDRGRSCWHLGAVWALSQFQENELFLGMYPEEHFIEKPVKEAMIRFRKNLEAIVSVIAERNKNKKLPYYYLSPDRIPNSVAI
Metric name: IC50 (nM)

[[record]]
smiles = "COc1cc2oc(-c3ccc(O)c(O)c3)cc(=O)c2c(OC)c1OCCC(C)C"
metric_name = "IC50"
quantity_unit = "nM"
data_value = 26

[[record]]
smiles = "CCCCCCCCOc1c(OC)cc2oc(-c3ccc(O)c(O)c3)cc(=O)c2c1OC"
metric_name = "IC50"
quantity_unit = "nM"
data_value = 22

[[record]]
smiles = "COc1cc(O)c2c(=O)cc(-c3ccc(O)c(O)c3)oc2c1OC"
metric_name = "IC50"
quantity_unit = "nM"
data_value = 110

[[record]]
smiles = "CCCCCOc1c(OC)cc2oc(-c3ccc(O)c(O)c3)cc(=O)c2c1O"
metric_name = "IC50"
quantity_unit = "nM"
data_value = 22

[[record]]
smiles = "CCCCCCCCCCOc1c(OC)cc2oc(-c3ccc(OC(C)=O)c(OC(C)=O)c3)cc(=O)c2c1OC"
metric_name = "IC50"
quantity_unit = "nM"
data_value = 30

[[record]]
smiles = "COc1cc2oc(-c3ccc(O)c(O)c3)cc(=O)c2c(OC)c1OC"
metric_name = "IC50"
quantity_unit = "nM"
data_value = 240

[[record]]
smiles = "CCCCCCCCCCOc1c(OC)cc2oc(-c3ccc(O)c(O)c3)cc(=O)c2c1OC"
metric_name = "IC50"
quantity_unit = "nM"
data_value = 17

[[record]]
smiles = "CCCCCCOc1c(OC)cc2oc(-c3ccc(OC(C)=O)c(OC(C)=O)c3)cc(=O)c2c1OC"
metric_name = "IC50"
quantity_unit = "nM"
data_value = 50

[[record]]
smiles = "CCCCCOc1c(OC)c(OC)cc2oc(-c3ccc(O)c(O)c3)cc(=O)c12"
metric_name = "IC50"
quantity_unit = "nM"
data_value = 32

[[record]]
smiles = "CCCCCCCCCCOc1c(OC)c(OC)cc2oc(-c3ccc(O)c(O)c3)cc(=O)c12"
metric_name = "IC50"
quantity_unit = "nM"
data_value = 18

[[record]]
smiles = "CCCCCCCCOc1c(OC)cc2oc(-c3ccc(OC(C)=O)c(OC(C)=O)c3)cc(=O)c2c1OC"
metric_name = "IC50"
quantity_unit = "nM"
data_value = 42

[[record]]
smiles = "CCCCCCOc1c(OC)cc2oc(-c3ccc(O)c(O)c3)cc(=O)c2c1O"
metric_name = "IC50"
quantity_unit = "nM"
data_value = 20

[[record]]
smiles = "CCCCCCOc1c(OC)c(OC)cc2oc(-c3ccc(O)c(O)c3)cc(=O)c12"
metric_name = "IC50"
quantity_unit = "nM"
data_value = 15

[[record]]
smiles = "COc1cc2oc(-c3ccc(OC(C)=O)c(OC(C)=O)c3)cc(=O)c2c(OC)c1OC"
metric_name = "IC50"
quantity_unit = "nM"
data_value = 1000

[[record]]
smiles = "CCCCCCCCCCCCOc1cc2oc(-c3ccc(O)c(O)c3)cc(=O)c2c(O)c1OC"
metric_name = "IC50"
quantity_unit = "nM"
data_value = 140

[[record]]
smiles = "COc1cc2oc(-c3ccc(O)c(O)c3)cc(=O)c2c(O)c1OC"
metric_name = "IC50"
quantity_unit = "nM"
data_value = 95

[[record]]
smiles = "CCCCCOc1c(OC)cc2oc(-c3ccc(O)c(O)c3)cc(=O)c2c1OC"
metric_name = "IC50"
quantity_unit = "nM"
data_value = 35

[[record]]
smiles = "CCCCCCCCCCCCOc1c(OC)cc(O)c2c(=O)cc(-c3ccc(O)c(O)c3)oc12"
metric_name = "IC50"
quantity_unit = "nM"
data_value = 110

[[record]]
smiles = "CCCCCCCCCCCCOc1c(OC)cc2oc(-c3ccc(OC(C)=O)c(OC(C)=O)c3)cc(=O)c2c1OC"
metric_name = "IC50"
quantity_unit = "nM"
data_value = 75


Hello, the source for this data is ChEMBL document CHEMBL1123544, in case you need it.
